src = ChEMBL document CHEMBL4184096

- target: Voltage-gated inwardly rectifying potassium channel KCNH2 (Homo sapiens, UniProt Q12809)
- Sequence (Q12809 whole entry): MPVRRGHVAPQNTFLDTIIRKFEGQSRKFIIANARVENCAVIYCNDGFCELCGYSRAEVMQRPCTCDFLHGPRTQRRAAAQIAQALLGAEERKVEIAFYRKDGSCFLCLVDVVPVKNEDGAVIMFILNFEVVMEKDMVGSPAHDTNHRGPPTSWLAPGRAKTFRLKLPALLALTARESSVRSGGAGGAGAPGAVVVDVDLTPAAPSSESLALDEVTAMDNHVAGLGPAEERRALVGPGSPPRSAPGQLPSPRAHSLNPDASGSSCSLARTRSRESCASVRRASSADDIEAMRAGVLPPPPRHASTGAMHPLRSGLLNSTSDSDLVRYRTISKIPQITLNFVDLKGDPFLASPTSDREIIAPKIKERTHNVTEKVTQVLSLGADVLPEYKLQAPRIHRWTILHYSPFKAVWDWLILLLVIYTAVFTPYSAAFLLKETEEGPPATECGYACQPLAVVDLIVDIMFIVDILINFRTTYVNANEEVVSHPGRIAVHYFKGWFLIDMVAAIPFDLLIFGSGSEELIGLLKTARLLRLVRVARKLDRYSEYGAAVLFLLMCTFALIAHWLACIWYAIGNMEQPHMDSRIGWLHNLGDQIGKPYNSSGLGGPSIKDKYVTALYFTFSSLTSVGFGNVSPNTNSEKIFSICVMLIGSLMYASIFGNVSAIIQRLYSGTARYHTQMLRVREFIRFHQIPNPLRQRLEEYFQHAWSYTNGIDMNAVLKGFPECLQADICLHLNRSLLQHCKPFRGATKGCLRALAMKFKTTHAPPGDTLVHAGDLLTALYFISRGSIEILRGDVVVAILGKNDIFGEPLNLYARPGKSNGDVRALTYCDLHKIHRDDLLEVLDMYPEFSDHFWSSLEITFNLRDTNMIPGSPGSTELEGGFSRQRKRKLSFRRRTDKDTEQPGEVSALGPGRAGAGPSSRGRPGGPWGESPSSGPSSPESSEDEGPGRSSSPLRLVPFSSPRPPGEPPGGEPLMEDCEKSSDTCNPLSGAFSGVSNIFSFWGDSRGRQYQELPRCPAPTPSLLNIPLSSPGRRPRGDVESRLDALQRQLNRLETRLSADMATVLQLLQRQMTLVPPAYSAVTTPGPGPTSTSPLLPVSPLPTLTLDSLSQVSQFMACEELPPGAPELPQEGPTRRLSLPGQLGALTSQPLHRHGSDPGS
- assay.overview: Inhibition of human ERG expressed in HEK293 cells at holding potential of -80 mV by whole cell patch clamp assay
endpoint: IC50 (nM)
# unit: nM | format: bare number

Qu. Which value of IC50 has been reported for `CNC(=O)C(CCN1CCC(O)(c2ccc(Cl)cc2)CC1)(c1ccccc1)c1ccccc1` in the records?
Ans. 245

###

- assay.overview: Fraction unbound in human plasma at 30 to 1000 ng/ml after 2 to 6 hrs by LC-MS/MS based rapid equilibrium dialysis method
- Assay type: ADME, cell-free
Record form. Attribute: Cp(f). Fill in for each entry.

Qu. Which value of Cp(f) has been reported for `CNC(=O)C(CCN1CCC(O)(c2ccc(Cl)cc2)CC1)(c1ccccc1)c1ccccc1` in the records?
Ans. 0.048 to 0.054 µM

Qu. Which value of Cp(f) has been reported for CN(C)C(=O)C(CCN1CCC(O)(c2ccc(Cl)cc2)CC1)(c1ccccc1)c1ccccc1 [LOPERAMIDE] in the records?
Ans. 0.0063 to 0.01 µM
